These data points were gathered from paper PMC9090415.

# target_system: P. falciparum apicoplast DNA polymerase (Pf-apPOL) (Plasmodium falciparum, UniProt Q8ILY1)
# Sequence (Q8ILY1 entry or part of it): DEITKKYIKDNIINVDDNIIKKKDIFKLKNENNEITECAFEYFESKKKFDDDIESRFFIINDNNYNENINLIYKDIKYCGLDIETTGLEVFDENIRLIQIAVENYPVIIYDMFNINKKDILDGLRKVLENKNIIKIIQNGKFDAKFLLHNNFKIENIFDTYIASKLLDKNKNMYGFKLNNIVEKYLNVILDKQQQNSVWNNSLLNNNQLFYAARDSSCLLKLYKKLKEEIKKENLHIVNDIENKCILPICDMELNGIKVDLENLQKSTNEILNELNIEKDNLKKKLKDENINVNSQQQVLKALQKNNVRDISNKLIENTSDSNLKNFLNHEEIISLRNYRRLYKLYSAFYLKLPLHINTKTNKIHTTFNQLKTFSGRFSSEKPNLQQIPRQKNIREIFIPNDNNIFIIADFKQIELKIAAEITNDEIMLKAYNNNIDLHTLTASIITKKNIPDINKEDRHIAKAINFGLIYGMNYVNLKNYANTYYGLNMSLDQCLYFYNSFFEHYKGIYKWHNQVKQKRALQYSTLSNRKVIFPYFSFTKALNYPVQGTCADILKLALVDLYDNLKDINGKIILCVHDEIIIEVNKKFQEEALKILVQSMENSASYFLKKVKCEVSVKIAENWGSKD
# test_protocol: Fluorescence-based high-throughput DNA polymerase assay (molecular beacon), primary screen and dose-response;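 also: test concentration in µM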
# Format: biochemical
# experimental_setup: DRC-1; 180'; concentration 5
# From the text: The HT assay employs a molecular beacon, a stem-loop DNA template with a Cy3 dye and the Black Hole Quencher on the 3′ and 5′ ends of the DNA, respectively. Pf-apPOL concentration is based on a calculated absorptivity of ε280 = 56750 M^−1 cm^−1. […] To identify apPOL inhibitors we utilised our previously developed high-throughput DNA polymerase assay. […] The assay accurately recapitulates the kinetic behaviour of apPOL, as measured through more conventional low-throughput gel-based assays. […]
quantity_measured: % inhibition apPOL 180' (%)
Dear colleague, please return just the value in %, with no unit written.

>>> meas_value("COc1ccc2c(c1)C(c1ccccc1OC)CC(=O)O2 (centres unmarked) [Molecule 38, COc1ccc2c(c1)C(CC(=O)O2)c1ccccc1OC]")
-6.316
>>> meas_value("O=C(NNC(=O)C(F)(F)Sc1ccccc1)c1ccsc1 [Molecule 68, O=C(C(Sc1ccccc1)(F)F)NNC(=O)c1cscc1]")
-6.4745
>>> meas_value("COc1ccc(-c2c(C(F)(F)F)nn3c(=O)cc(-c4cccc([N+](=O)[O-])c4)[nH]c23)cc1 [Molecule 16]")
14.5865

Ask: Which % inhibition apPOL 180' value is on record for COc1ccc(-c2n[nH]cc2Oc2ccc(Cl)cc2)c(O)c1 [KU0029837] ?
Reply: 3.615

Ask: Which % inhibition apPOL 180' value is on record for CC(C)(C)c1cc(C(=O)C(C#N)=NNc2cccc(Cl)c2)no1 [Molecule 98] ?
Reply: 23.8574

Ask: Which % inhibition apPOL 180' value is on record for CCOc1cccc2cc(C(=O)Nc3nnc(-c4ccno4)o3)oc12 [Molecule 28, CCOc1cccc2c1oc(c2)C(=O)Nc1nnc(o1)c1ccno1] ?
Reply: 5.082

Ask: Which % inhibition apPOL 180' value is on record for O=C(O)CC1=NN(c2cccc([N+](=O)[O-])c2)C(=O)C1 [KU0100531] ?
Reply: 8.316

Ask: Which % inhibition apPOL 180' value is on record for O=c1[nH]c2ccc([N+](=O)[O-])cc2c(-c2ccccc2)c1Sc1nc2ccccc2o1 [KU0067471] ?
Reply: 3.743

Ask: Which % inhibition apPOL 180' value is on record for O=c1cc(CN2CCCCC2)c2cc3c(cc2o1)OCO3 [Molecule 56, O=c1cc(CN2CCCCC2)c2c(o1)cc1c(c2)OCO1] ?
Reply: 9.055

Ask: Which % inhibition apPOL 180' value is on record for O=C(CSc1nnc(-c2ccco2)[nH]1)c1ccc(Cl)cc1 [KU0029065] ?
Reply: 8.15
